All figures here come from ChEMBL document CHEMBL1145498.

For reference, ΔTm measured on Serine/threonine-protein kinase 26 (Homo sapiens):
READOUT_TYPE: ΔTm (°C)

NC(=O)c1ccc2[nH]c(-c3ccc(Oc4ccc(Cl)cc4)cc3)nc2c1 ... 1.3
CCOc1cc(/C=C(\C#N)C(N)=O)cc(CSc2ccccc2)c1O ... -0.5
Nc1cc2ncnc(Nc3cccc(Br)c3)c2cc1N ... 4.2
Ic1cccc(CSc2nnc(-c3ccncc3)o2)c1 ... -0.6
Cc1cc2ncc(-c3ccccc3)nc2cc1C ... 1.2
CC(C)(C)c1cc(C=C2C(=O)C=CC2=O)cc(C(C)(C)C)c1O ... 0
O=C1NC(=O)C(c2cn(CCCn3ccnc3)c3ccccc23)=C1Nc1ccccc1 ... 3.1
N#C/C(=C\c1ccc(O)c(O)c1)C(=O)NCc1ccccc1 ... 0
CN(C)c1ncnc2nc[nH]c12 ... 0
CN(c1cccnc1)c1cc2c(Nc3ccc(F)c(Cl)c3)c(C#N)cnc2cn1 ... 0.7
CC[C@H](CO)Nc1nc(NCc2ccccc2)c2ncn(C(C)C)c2n1 ... 0.3
O=c1cc(N2CCOCC2)oc2c1ccc1ccccc12 ... 0.2
O=S(=O)(NCCNC/C=C/c1ccc(Br)cc1)c1cccc2cnccc12 ... 0.9
O=C1Cc2c([nH]c3ccc(Br)cc23)-c2ccccc2N1 ... 1.5
Cc1ccc(NC2=CC(=O)c3sc(C)nc3C2=O)cc1 ... -0.5
COc1cc(/C=C/C(=O)CC(=O)/C=C/c2ccc(O)c(OC)c2)ccc1O ... 2.9
N#C/C(=C\c1ccc(O)c(O)c1)C(=O)Nc1ccccc1 ... 0.4
O=c1ccc2ccc(O)c(O)c2o1 ... -0.2
COc1ccc(CNc2nc(N(CCO)CCO)nc3c2ncn3C(C)C)cc1 ... 1
CC(C)(C)n1nc(-c2ccc(Cl)cc2)c2c(N)ncnc21 ... -0.3
Nc1ncnc2c1c(I)cn2[C@@H]1O[C@H](CO)[C@@H](O)[C@H]1O ... 2.1
O=c1cc(N2CCOCC2)oc2c(-c3ccccc3)cccc12 ... 0.2
NS(=O)(=O)c1ccc(Nc2nc(OCC3CCCCC3)c3nc[nH]c3n2)cc1 ... 5.7

* * *

target: UniProtKB Q15746; assay: Inhibition of myosin light chain kinase
Sequence (Q15746 whole entry): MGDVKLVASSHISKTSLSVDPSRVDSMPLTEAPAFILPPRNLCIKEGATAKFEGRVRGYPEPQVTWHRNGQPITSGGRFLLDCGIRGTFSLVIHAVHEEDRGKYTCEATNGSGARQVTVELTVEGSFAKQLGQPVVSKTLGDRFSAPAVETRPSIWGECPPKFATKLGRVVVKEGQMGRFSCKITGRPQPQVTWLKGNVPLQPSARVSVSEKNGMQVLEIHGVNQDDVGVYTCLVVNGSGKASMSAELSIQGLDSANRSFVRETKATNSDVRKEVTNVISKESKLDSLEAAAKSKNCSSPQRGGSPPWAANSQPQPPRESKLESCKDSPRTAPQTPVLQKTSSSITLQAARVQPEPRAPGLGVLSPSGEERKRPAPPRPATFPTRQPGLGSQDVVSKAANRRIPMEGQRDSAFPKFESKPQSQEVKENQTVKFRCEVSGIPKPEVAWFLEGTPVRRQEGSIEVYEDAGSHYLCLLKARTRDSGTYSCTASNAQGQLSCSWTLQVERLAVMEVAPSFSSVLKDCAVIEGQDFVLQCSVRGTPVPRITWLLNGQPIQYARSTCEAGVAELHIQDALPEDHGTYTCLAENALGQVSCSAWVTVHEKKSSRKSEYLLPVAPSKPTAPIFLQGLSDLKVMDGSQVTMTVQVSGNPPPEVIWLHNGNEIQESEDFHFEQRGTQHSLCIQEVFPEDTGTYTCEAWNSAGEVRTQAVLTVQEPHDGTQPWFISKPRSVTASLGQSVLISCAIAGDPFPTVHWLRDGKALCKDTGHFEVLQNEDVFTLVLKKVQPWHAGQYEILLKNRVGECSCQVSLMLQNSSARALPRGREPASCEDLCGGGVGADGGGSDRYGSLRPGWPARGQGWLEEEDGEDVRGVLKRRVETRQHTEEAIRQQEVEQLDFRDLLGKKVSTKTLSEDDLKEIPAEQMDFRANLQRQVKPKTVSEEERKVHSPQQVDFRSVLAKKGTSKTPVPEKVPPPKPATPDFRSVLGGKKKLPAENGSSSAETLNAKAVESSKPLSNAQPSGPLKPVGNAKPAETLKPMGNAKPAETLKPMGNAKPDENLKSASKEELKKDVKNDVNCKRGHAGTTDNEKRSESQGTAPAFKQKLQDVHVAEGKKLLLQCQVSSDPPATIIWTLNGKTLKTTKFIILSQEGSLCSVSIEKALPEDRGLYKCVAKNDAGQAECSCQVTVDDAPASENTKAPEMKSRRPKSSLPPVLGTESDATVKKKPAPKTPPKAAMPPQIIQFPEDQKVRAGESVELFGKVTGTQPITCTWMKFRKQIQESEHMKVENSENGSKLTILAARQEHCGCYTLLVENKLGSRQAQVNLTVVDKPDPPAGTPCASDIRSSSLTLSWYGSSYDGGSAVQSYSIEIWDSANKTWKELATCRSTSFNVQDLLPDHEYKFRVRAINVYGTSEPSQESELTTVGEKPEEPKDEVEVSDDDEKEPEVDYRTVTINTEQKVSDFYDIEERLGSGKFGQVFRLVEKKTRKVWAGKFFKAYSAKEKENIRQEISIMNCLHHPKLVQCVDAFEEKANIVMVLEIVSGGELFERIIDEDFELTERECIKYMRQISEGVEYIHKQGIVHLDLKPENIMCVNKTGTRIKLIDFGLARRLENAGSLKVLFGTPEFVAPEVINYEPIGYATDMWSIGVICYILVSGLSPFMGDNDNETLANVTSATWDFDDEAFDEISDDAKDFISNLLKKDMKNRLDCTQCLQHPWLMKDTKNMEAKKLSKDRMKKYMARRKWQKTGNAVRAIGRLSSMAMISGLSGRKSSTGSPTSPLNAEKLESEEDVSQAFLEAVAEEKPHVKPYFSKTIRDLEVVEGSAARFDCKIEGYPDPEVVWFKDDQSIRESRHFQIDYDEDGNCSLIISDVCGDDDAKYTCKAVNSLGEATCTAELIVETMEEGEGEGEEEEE
Quick reference: IC50 of the listed items.
READOUT_TYPE: IC50 (µM)

Cl.Cn1cc(C2=C(c3ccc4cc5n(c4c3)CCC(CN)C5)C(=O)NC2=O)c2ccccc21 (configuration not stated) ... 3.7
O=S(=O)(c1cccc2cnccc12)N1CCCNCC1 [FASUDIL] ... 3.6

* * *

For reference, ΔTm measured on Cyclin-dependent kinase-like 1 (Homo sapiens):
READOUT_TYPE: ΔTm

COc1cc2c(cc1OC)-c1n[nH]c(Nc3cccc(F)c3)c1C2 ... -0.1 °C
O=C1Nc2ccc(I)cc2/C1=C1/Nc2ccccc2/C1=N\O ... 5.4 °C
C[C@@H]1C[C@H]2O[C@@H]2/C=C\C=C\C(=O)Cc2c(Cl)c(O)cc(O)c2C(=O)O1 ... -0.2 °C
CN(C)c1ccc(CC2C(=O)Nc3ccccc32)cc1 (stereo not given) ... -0.3 °C
Cc1c2ccncc2c(C)c2c1[nH]c1ccccc12 ... 0.7 °C
CN(C)CCCn1cc(C2=C(c3c[nH]c4ccccc34)C(=O)NC2=O)c2ccccc21 ... 0.7 °C
O=C1Cc2c([nH]c3ccc([N+](=O)[O-])cc23)-c2ccccc2N1 ... 0.4 °C
Cc1cc(C=C2C(=O)C=CC2=O)cc(C)c1O ... -2.2 °C
COc1cc2ncnc(Nc3ccc(F)c(Cl)c3)c2cc1OCCCN1CCOCC1 ... 0.2 °C
O=C(O)Cc1ccc(O)c([N+](=O)[O-])c1 ... 1.2 °C

* * *

biological target: UniProt Q99640; assay: Inhibition of Myt1
Sequence (Q99640 whole entry): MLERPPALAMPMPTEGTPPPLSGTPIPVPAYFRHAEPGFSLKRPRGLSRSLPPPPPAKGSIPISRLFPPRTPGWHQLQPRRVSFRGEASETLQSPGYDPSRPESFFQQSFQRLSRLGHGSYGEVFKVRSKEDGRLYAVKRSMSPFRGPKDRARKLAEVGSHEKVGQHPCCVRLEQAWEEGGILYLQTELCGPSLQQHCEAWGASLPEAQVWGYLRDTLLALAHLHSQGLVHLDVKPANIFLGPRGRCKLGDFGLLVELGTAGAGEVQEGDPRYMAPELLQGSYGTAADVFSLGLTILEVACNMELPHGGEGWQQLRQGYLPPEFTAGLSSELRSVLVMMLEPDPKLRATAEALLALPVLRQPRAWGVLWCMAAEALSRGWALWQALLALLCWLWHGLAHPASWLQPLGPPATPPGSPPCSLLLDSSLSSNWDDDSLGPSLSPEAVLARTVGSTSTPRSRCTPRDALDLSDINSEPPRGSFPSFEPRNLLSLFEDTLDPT
READOUT_TYPE: IC50 (µM)

CN1CCc2[nH]c(=S)c(C#N)c(-c3cccs3)c2C1 ... 1.2

* * *

system: KB; test: cells; details: Homo sapiens
READOUT_TYPE: IC50 (nM)

CN1CCC(Nc2ncc3ncnc(Nc4ccc(F)c(Cl)c4)c3n2)CC1 [FALNIDAMOL] ... 1.82

* * *

target: Calcium/calmodulin-dependent protein kinase kinase 2 (Homo sapiens, UniProt Q96RR4)
Sequence (Q96RR4 2-588 limits assumed): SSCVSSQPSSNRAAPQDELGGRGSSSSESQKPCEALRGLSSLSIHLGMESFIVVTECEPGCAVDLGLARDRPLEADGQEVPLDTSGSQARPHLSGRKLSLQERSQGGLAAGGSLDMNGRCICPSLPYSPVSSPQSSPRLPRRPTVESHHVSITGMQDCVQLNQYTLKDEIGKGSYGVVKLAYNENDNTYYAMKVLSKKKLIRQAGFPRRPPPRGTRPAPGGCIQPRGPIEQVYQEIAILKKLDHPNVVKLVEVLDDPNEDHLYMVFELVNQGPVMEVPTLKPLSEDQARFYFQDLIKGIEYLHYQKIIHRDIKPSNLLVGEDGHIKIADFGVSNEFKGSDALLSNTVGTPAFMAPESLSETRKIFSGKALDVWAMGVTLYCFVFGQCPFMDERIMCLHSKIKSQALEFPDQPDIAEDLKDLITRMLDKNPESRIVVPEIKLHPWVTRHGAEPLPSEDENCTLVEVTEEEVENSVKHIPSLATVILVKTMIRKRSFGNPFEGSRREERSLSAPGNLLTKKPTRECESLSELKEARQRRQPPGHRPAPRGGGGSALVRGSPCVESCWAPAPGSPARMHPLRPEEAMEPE
Decision: ΔTm beneath 2 °C gives TRUE; ΔTm meeting or exceeding 2 °C gives FALSE.

C[S+]([O-])c1ccc(CSc2nc(-c3ccc(F)cc3)c(-c3ccncc3)[nH]2)cc1 (stereo unspecified) ... TRUE
O=C(O)/C=C/c1cc(CO)ccc1CO ... TRUE
Oc1ccc(-c2nc(-c3ccc(F)cc3)c(-c3ccncc3)[nH]2)cc1 ... TRUE
O=Nc1c(-c2c(O)[nH]c3ccccc23)[nH]c2ccccc12 ... FALSE
Cc1nc2sccn2c(=O)c1CCN1CCC(=C(c2ccccc2)c2ccc(F)cc2)CC1 ... TRUE
O=C1Nc2ccccc2/C1=C\c1ccc[nH]1 ... FALSE
N#C/C(=C\c1ccc(O)c(O)c1)C(=O)NCc1ccccc1 ... TRUE
CN(C)S(=O)(=O)c1ccc2c(c1)/C(=C/c1cc3c([nH]1)CCCC3)C(=O)N2 ... FALSE

* * *

molecular target: TRAF2 and NCK-interacting protein kinase (Homo sapiens) (UniProt Q9UKE5)
Sequence (Q9UKE5 whole entry, looked up): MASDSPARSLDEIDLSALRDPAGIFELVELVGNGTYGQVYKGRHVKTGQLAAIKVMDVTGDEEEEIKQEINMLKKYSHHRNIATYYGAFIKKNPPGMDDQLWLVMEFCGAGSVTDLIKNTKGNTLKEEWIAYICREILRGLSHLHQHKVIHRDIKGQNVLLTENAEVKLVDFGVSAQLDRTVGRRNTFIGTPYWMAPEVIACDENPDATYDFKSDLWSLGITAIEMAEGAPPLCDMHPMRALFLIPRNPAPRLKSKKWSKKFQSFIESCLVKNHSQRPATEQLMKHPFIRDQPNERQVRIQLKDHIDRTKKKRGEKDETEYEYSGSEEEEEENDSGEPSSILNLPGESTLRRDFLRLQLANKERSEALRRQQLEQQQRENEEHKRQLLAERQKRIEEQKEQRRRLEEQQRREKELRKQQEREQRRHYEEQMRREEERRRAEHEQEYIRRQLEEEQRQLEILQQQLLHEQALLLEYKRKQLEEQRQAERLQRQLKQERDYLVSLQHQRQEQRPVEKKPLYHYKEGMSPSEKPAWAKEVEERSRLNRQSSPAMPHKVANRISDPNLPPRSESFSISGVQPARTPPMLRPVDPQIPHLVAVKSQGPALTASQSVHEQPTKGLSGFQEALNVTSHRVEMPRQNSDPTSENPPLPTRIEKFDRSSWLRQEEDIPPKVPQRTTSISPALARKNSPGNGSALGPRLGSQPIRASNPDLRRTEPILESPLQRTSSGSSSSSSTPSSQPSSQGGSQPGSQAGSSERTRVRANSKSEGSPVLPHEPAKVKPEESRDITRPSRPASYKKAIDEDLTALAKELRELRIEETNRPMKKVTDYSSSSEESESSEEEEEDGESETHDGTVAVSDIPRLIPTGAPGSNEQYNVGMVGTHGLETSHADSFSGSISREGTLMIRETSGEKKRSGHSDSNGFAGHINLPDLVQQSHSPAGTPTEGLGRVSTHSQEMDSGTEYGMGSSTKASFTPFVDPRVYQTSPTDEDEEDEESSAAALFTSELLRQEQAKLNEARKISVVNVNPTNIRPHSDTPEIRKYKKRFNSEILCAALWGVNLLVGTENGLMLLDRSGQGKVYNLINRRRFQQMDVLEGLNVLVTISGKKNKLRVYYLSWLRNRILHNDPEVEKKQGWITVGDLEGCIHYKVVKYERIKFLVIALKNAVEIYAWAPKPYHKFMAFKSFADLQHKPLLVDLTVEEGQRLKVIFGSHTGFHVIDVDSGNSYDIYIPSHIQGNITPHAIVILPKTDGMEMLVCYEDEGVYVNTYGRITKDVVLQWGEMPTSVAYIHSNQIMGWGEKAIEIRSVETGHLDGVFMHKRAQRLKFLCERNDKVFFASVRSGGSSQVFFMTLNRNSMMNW
READOUT_TYPE: ΔTm

CN[C@@H]1CC2O[C@@](C)([C@@H]1OC)n1c3ccccc3c3c4c(c5c6ccccc6n2c5c31)C(=O)NC4 ... 9.4 °C
Cc1ccc(NC2=CC(=O)c3sc(C)nc3C2=O)cc1 ... -1.4 °C
NS(=O)(=O)c1ccc(Nc2nc(OCC3CCCCC3)c3nc[nH]c3n2)cc1 ... -0.3 °C
Cc1ccc(NC(=O)c2cccc(N(C)C)c2)cc1NC(=O)c1ccc(O)cc1 ... 0.1 °C
O=c1c(O)c(-c2ccc(O)c(O)c2)oc2cc(O)cc(O)c12 ... 3.3 °C
N#CC(C#N)=Cc1ccc(O)c(O)c1 ... 0.2 °C
O=c1cc(N2CCOCC2)oc2c1ccc1ccccc12 ... 0.3 °C
COC1=C2C[C@@H](C)C[C@H](OC)[C@H](O)[C@@H](C)/C=C(\C)[C@H](OC(N)=O)[C@@H](OC)/C=C\C=C(/C)C(=O)NC(=CC1=O)C2=O ... -0.4 °C
CCOc1ccc(/C=C2/SC(=O)N(CCN)C2=O)cc1 ... -0.4 °C

* * *

For reference, ΔTm measured on Dual specificity mitogen-activated protein kinase kinase 6 (Homo sapiens):
READOUT_TYPE: ΔTm

O=C1Nc2ccc(I)cc2/C1=C1/Nc2ccccc2/C1=N\O ... 1.5 °C
Cc1nc(Nc2ncc(C(=O)Nc3c(C)cccc3Cl)s2)cc(N2CCN(CCO)CC2)n1 ... 0.5 °C
Nc1nc(Nc2ccc(S(N)(=O)=O)cc2)nn1C(=S)Nc1c(F)cccc1F ... 7.6 °C
O=C1Nc2ccc(S(=O)(=O)O)cc2/C1=C1/Nc2ccccc2/C1=N\O ... 3.5 °C
COc1ccc(CNC(=O)Nc2ncc([N+](=O)[O-])s2)cc1 ... 0.2 °C
O=c1cc(N2CCOCC2)oc2c(-c3ccccc3)cccc12 ... 0.4 °C
O=C1NC(=O)c2c1c1c3ccccc3n3c1c1c2c2ccccc2n1C1CCC3O1 ... -0.2 °C
O=c1ccc2ccc(O)c(O)c2o1 ... 0.1 °C
CCOc1cc2ncnc(Nc3cccc(Br)c3)c2cc1OCC ... 0.3 °C
COc1cc2ncnc(Nc3ccc(F)c(Cl)c3)c2cc1OCCCN1CCOCC1 ... 0.1 °C
O=c1c2ccccc2[nH]c(=S)n1CCN1CCC(=C(c2ccc(F)cc2)c2ccc(F)cc2)CC1 ... 0.4 °C
Cl.Cn1cc(C2=C(c3ccc4cc5n(c4c3)CCC(CN)C5)C(=O)NC2=O)c2ccccc21 (stereo not given) ... 1.1 °C
Oc1ccc(-c2nc(-c3ccc(F)cc3)c(-c3ccncc3)[nH]2)cc1 ... 0.3 °C
Brc1c(Br)c(Br)c2[nH]nnc2c1Br ... 2.4 °C
CCOC(=O)c1c(C)[nH]c(/C=C2\C(=O)Nc3ccccc32)c1C ... 0 °C
Cc1[nH]c(/C=C2\C(=O)Nc3ccc(S(=O)(=O)N(C)c4cccc(Cl)c4)cc32)c(C)c1C(=O)N1CCN(C)CC1 ... 3 °C
CN(C)CC1CCn2c(c(C3=C(c4c[nH]c5ccccc45)C(=O)NC3=O)c3ccccc32)C1 (stereo not given) ... 0.8 °C
O=C1Nc2ccccc2/C1=C/c1cnc[nH]1 ... 4.7 °C
Cc1ccc(NC(=O)c2ccc(CN3CCN(C)CC3)cc2)cc1Nc1nccc(-c2cccnc2)n1 ... 0.4 °C
O=c1cc(-c2ccc(O)cc2)oc2cc(O)cc(O)c12 ... 2.2 °C
COc1cc(C[C@H]2C(=O)OC[C@@H]2Cc2ccc(OC)c(OC)c2)ccc1O ... 0.3 °C
Cn1cc(/C=C2/C(=O)Nc3ccc(S(N)(=O)=O)cc32)c2ccccc21 ... 10.3 °C
N#CC(C#N)=Cc1ccc(O)c(O)c1 ... 0.2 °C
N#C/C(=C\c1ccc(O)c(O)c1)C(=O)NCc1ccccc1 ... 0.4 °C
NCCNS(=O)(=O)c1cccc2c(Cl)cccc12 ... -0.1 °C
O=C1Cc2c([nH]c3ccc(Br)cc23)-c2ccccc2N1 ... 0.4 °C
CN(C)c1ccc(CC2C(=O)Nc3ccccc32)cc1 (stereo not given) ... 0.5 °C
Nc1nccc(-c2c(-c3ccc(F)cc3)ncn2C2CCNCC2)n1 ... 0.2 °C
Cc1c2ccncc2c(C)c2c1[nH]c1ccccc12 ... 6.3 °C
CN(C)c1ncnc2nc[nH]c12 ... 0.2 °C
CC(C)N(CCO)c1nc(Nc2cccc(Cl)c2)c2ncn(C(C)C)c2n1 ... 0.9 °C
COc1ccc2c(c[n+](C)c3c4cc5c(cc4ccc23)OCO5)c1OC [CHELERYTHRINE CHLORIDE] ... -6.6 °C
O=C(Nc1cccc(Nc2cc(Nc3cccc(C(F)(F)F)c3)ncn2)c1)C1CC1 ... 2.1 °C
Cc1ccc(NC2=CC(=O)c3sc(C)nc3C2=O)cc1 ... -0.2 °C
Cc1cncc2cccc(S(=O)(=O)N3CCCNC[C@@H]3C)c12 ... 0.4 °C
CN(c1cccnc1)c1cc2c(Nc3ccc(F)c(Cl)c3)c(C#N)cnc2cn1 ... 0.4 °C
CCOc1ccc(/C=C2/SC(=O)N(CCN)C2=O)cc1 ... 0.1 °C
C[S+]([O-])c1ccc(-c2nc(-c3ccc(F)cc3)c(-c3ccncc3)[nH]2)cc1 (stereo not given) ... -0.1 °C
CN(C)C[C@@H]1CCn2cc(c3ccccc32)C2=C(C(=O)NC2=O)c2cn(c3ccccc23)CCO1 ... 0.5 °C
CC(=O)O/N=C1/C(=C2/C(=O)Nc3cc(Br)ccc32)Nc2ccccc21 ... 0.8 °C
